target: Serine/threonine-protein kinase Nek1 (Homo sapiens) (UniProt Q96PY6); assay: Inhibition of NEK1 at 1 uM
Sequence (Q96PY6 whole entry): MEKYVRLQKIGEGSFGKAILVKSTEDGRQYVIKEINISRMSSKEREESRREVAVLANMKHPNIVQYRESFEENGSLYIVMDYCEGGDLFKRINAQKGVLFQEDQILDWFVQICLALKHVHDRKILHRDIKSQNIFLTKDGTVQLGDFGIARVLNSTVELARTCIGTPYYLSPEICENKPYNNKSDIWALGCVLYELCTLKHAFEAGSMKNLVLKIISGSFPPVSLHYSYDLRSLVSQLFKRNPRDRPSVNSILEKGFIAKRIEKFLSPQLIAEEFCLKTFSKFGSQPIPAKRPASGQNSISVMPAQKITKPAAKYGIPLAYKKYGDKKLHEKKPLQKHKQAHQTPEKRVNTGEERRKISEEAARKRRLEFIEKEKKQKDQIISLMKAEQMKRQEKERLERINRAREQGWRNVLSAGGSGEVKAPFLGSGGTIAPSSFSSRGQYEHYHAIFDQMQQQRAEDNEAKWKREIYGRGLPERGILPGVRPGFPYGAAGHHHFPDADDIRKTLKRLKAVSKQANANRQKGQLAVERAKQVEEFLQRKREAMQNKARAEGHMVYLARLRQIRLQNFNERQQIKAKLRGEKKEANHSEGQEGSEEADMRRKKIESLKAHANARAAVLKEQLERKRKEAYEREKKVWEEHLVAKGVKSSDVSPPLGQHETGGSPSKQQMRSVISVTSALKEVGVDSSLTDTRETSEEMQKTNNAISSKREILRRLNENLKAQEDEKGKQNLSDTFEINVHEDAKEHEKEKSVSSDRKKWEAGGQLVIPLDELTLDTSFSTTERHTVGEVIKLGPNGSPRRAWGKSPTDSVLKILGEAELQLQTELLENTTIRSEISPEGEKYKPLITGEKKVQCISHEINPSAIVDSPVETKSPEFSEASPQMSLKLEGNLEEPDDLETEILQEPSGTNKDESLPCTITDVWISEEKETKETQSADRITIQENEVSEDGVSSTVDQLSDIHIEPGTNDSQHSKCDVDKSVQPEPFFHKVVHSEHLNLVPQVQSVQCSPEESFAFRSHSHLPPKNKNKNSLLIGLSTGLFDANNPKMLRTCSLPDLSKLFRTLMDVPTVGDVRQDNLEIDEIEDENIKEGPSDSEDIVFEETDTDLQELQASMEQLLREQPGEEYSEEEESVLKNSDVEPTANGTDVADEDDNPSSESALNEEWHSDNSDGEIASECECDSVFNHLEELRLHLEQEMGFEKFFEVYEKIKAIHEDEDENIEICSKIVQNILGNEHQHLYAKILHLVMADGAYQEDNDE
Assignment: determine reported inhibition for the given molecules.

Form field: reported inhibition of O=C(c1ccc(-c2cnc3c(c2)N(Cc2cc(Cl)ccc2C(F)(F)F)CCN3)cc1)N1CCC(N2CCCC2)CC1
< 50%

Now consider CN1CCN(c2ccc(-c3cnc4c(c3)N(Cc3cc(F)ccc3F)CCN4)cn2)CC1 and answer again.
< 50%

Here is the next molecule: CN1CCN(c2ccc(-c3cnc4c(c3)N(Cc3cc(Cl)ccc3C(F)(F)F)CCN4)cn2)CC1
< 50%

* * *

Consider the following compounds; for each one, report its inhibition.
test system: Tyrosine-protein kinase ABL1 (Homo sapiens), P00519 [Q252H]; assay: Inhibition of ABL1 Q252H mutant at 1 uM

Need inhibition of CC(=O)N1CCN(c2cc(-c3cnc4c(c3)N(Cc3cc(Cl)ccc3C(F)(F)F)CCN4)ccn2)CC1 , thanks.
< 50%

What about this compound? O=C(c1ccc(-c2cnc3c(c2)N(Cc2cc(Cl)ccc2C(F)(F)F)CCN3)cc1)N1CCCCC1
< 50%

How about this compound: O=C(O)c1ccc(-c2cnc3c(c2)N(Cc2cc(Cl)ccc2C(F)(F)F)CCN3)cc1
< 50%

Now try CN1CCN(c2ccc(-c3cnc4c(c3)N(Cc3cc(F)ccc3F)CCN4)cn2)CC1 .
< 50%

Now give it for CN1CCN(c2ccc(-c3cnc4c(c3)N(Cc3cc(Cl)ccc3Cl)CCN4)cn2)CC1 too.
< 50%

Subsequent entry: COC1CCN(C(=O)c2ccc(-c3cnc4c(c3)N(Cc3cc(Cl)ccc3C(F)(F)F)CCN4)cc2)CC1
< 50%

Another compound: FC(F)(F)c1ccc(Cl)cc1CN1CCNc2ncc(-c3ccnc(N4CCNCC4)c3)cc21
< 50%

Next record, please: O=C(c1ccc(-c2cnc3c(c2)N(Cc2cc(Cl)ccc2C(F)(F)F)CCN3)cc1)N1CCC(N2CCCC2)CC1
63%

Follow-up entry: CN1CCN(c2ccc(-c3cnc4c(c3)N(Cc3c(F)ccc(F)c3Cl)CCN4)cn2)CC1
72%

Likewise for CN1CCN(c2ccc(-c3cnc4c(c3)N(Cc3cc(Cl)ccc3C(F)(F)F)CCN4)cn2)CC1 ?
< 50%

Attribution: ChEMBL document CHEMBL1165965
